The measured values listed here are drawn from the supplement of paper PMC6555819.

Test system: PPARg homodimer (NR concentration 180 nM)
Assay: PBM binding z-score (relative to random genomic background probes); higher = stronger binding; sequences stand for … in GC…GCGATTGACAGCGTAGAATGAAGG
READOUT TYPE: PBM binding z-score
Number only, no unit.

Answered cases to consult:
SEQUENCE CONTENT | PBM binding z-score
CGAACTAGGTCACCAGGACAGTGATGAGGTTGGA | 2.34
AGTCAAAGTTCATCTTGGTAACGTAAGATATGCT | 2.64
CAAACTAGGTCAAAGGACAGTGAAAGGCGACGTA | 2.88
CACACTAGGTCAAGAGGTCAAAGTCCGCTTCCCG | 7.46

Item CCTACTGGGCCAAGGTCATTGACCAGTCAAAGCA has what recorded PBM binding z-score?
1.94

Item ATATGTAGGTTAGCTGGGGTCATTCCGACTAGGC has what recorded PBM binding z-score?
3.16

Item TAGCCTAGGTCACGGGCCAGTATACCACGCGAAC has what recorded PBM binding z-score?
1.4

Item ATATTTAGGTTAGGGTCATTCAGAAAGTAGGGAA has what recorded PBM binding z-score?
4.04

Item ATATGTAGGTCAGCTGGGGTCATTCAGACTAGGC has what recorded PBM binding z-score?
4.29

Item AGTCAAAGGTCAGGACGAGGTAACGTAAAGCACG has what recorded PBM binding z-score?
4.08

Item AGTCAAAGTTCATCTGGGTAACGTAAGATATGCT has what recorded PBM binding z-score?
2.39

Item CCTACTGGGCAAAAAAGGTCATTGATGCCGATAA has what recorded PBM binding z-score?
2.27

----------
Test system: PXR homodimer (NR concentration 270 nM)
Test: PBM binding z-score (relative to random genomic background probes); higher = stronger binding; sequences stand for … in GC…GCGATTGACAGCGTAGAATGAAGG
Class membership depends on PBM binding z-score alone; the intervals are class 0: < 0.002; class 1: ≥ 0.002 and < 2; class 2: ≥ 2

SEQUENCE CONTENT | TARGET DESC | CATEGORY LABEL
TGAATGAGGTTAAAGGTCAGGGAACGTGGCGTCG | PXR homodimer (NR concentration 270 nM) | class 1

Please indicate the class for GATTACGGGTCAAAGGTTATAGCATGAATAGAAT based on its PBM binding z-score.
class 1

----------
Tested on: RXRa homodimer (NR concentration 180 nM)
Experiment: PBM binding z-score (relative to random genomic background probes); higher = stronger binding; sequences stand for … in GC…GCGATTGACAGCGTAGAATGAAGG
READOUT TYPE: PBM binding z-score
Number only, no unit.

Answered cases to consult:
SEQUENCE CONTENT | READOUT NUMBER
CCTAGCAGGCCAATCGGGGTCACTCAAGGCTTGA | 6.01
CCGAGTAGGTTATGAGGGGGCATTCAGTGCGAAT | 1.95
TCGAGTAGTTTACGGGGGCATTCAGGGATGAAGA | 1.48
CTCGAAAGGTCGTGGTCAGGTGAGTATACCAAAC | 5.4

Note: attention shifts to another entry.
Item CCGAGTAGGTTACGAGGGGGCATACAGTGCGAAT has what recorded PBM binding z-score?
2.14

----------
System: FXR:RXRa (NR concentration 270 nM, RXRa partner concentration 90 nM)
Assay: PBM binding z-score (relative to random genomic background probes); higher = stronger binding; sequences stand for … in GC…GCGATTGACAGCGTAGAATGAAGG
Reported PBM binding z-score values for the following sequences.
Number only, no unit.

SEQUENCE CONTENT | TARGET DESC | PBM binding z-score
CGAACTAGGTCACCCGGACAGTGAAGAGGTTGGA | FXR:RXRa (NR concentration 270 nM, RXRa partner concentration 90 nM) | 3.91
GATACAGGGTGAGCTAGAGGCCAGAGTATGGAAA | FXR:RXRa (NR concentration 270 nM, RXRa partner concentration 90 nM) | -0.454
TGAATGAGGTCAAAGATCAGGGAACGTGGCGTCG | FXR:RXRa (NR concentration 270 nM, RXRa partner concentration 90 nM) | 7.57

Note: attention shifts to another entry.
Item CGAACTAGGTCTCCAGGACAGTGAAGAGGTTGGA has what recorded PBM binding z-score?
-0.128
